Test system: SK-MEL-2
Assay: NCI tumour cell line growth inhibition, 48 h
The source made the active and inactive calls. No stated cut-off is given here; in the data, active = GI50 up to about 1.1 µM and inactive = higher.
property.label: GI50

[[record]]
compound = "Cc1cccc2nc3c(=O)[nH]c(=O)nc-3n(C)c12"
property_label = "GI50"
result = "48.8 µM (inactive)"

[[record]]
compound = "COc1cc(I)c2c3c1OC1C34CCN(C)C(C2)C4=CC(I)C1(OC)OC (stereo not given)"
property_label = "GI50"
result = "16.4 µM (inactive)"

[[record]]
compound = "[O-][S+](CCCl)c1c2ccccc2nc2ccccc12 (stereo not given)"
property_label = "GI50"
result = "> 100 µM (inactive)"

[[record]]
compound = "COc1c2c(cc3c1C(O)N1CC[C@]34[C@H]3O[C@H]3[C@H](OC)C[C@@H]14)OCO2 (stereo not given in full)"
property_label = "GI50"
result = "26.4 µM (inactive)"

[[record]]
compound = "CC(=O)NNc1nc(C)c(C(=O)NNC(=O)C(=O)Nc2ccc(C)c(C)c2)s1"
property_label = "GI50"
result = "> 100 µM (inactive)"


Give GI50 for each of the items listed below.
1. O=C(O)/C=C/c1c[nH]c(=O)[nH]c1=O
2. C/C(=C\Cc1ccc(F)cc1)CCCCCC/C(C)=C/Cc1ccc(F)cc1
3. CNC(=O)C(C)C1CCC2(C)C=CC(=O)C(C)=C2C1O (stereo not given)

Result string:
1. > 250 µM (inactive)
2. 16.9 µM (inactive)
3. > 100 µM (inactive)

Give GI50 for each of the items listed below.
1. CN/N=C(/CC(=O)c1sc(-n2nc(-c3ccccc3)cc2-c2ccccc2)nc1C)C(=O)Nc1ccc(Cl)c(Cl)c1
2. O=[N+]([O-])/C(C(Cl)=C(Cl)Cl)=C(\NCc1ccccc1)Sc1ccccc1

Result string:
> 100 µM (inactive)
25.1 µM (inactive)
